Numbers sourced from patent US20220195023A1.

target: … (Plasmodium falciparum)
experimental.details: BLI, target on sensor
Give measured Kd for each item. Keep answers brief.
Report the value in nM with no unit label.

Reported Kd of AB-007041 (antibody, V domains shown) VH: QMQLVESGGGVVQPGRSLRLSCTASGFTFSDYAMHWVRQSPGQGLQWVAVISYHSTNKYYEDSVRGRFTISRDNSKNTLYLQMNSLRAEDTAVYYCARDGYSSSFFDFWGQGTLVTVSS VL: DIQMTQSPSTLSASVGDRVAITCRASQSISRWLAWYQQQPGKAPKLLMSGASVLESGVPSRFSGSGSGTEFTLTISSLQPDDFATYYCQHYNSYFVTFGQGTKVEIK : 5.57

Reported Kd of AB-007048 (antibody, V domains shown) VH: QMQLVESGGGVVQPGRSLRLSCTASGFTFSTYSMHWVRQSPGQGLQWVAVISYHSTNKYYEDSVRGRFTISRDNSKNTLYLQMNSLRAEDTAVYYCARDGYSSSFFDFWGQGTLVTVSS VL: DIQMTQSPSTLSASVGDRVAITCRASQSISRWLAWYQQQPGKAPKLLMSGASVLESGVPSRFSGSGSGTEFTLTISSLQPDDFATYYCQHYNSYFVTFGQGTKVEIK : 28.6

Reported Kd of AB-007064 (antibody, V domains shown) VH: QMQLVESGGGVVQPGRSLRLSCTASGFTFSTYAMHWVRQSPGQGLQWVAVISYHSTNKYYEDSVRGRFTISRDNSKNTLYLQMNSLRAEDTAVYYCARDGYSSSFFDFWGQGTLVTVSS VL: DIQMTQSPSTLSASVGDRVAITCRASQSISRWLAWYQQQPGKAPKLLMTGASVLESGVPSRFSGSGSGTEFTLTISSLQPDDFATYYCQHYNSYFVTFGQGTKVEIK : 30.9
